Data provenance is patent US20220372138A1.

# pEC50 per entry
# study_system: T1, human IGSF11 (VSIG3) ECD, His-tagged (human, UniProt Q5DX21 23-241)
# T1 construct: in part bought (SinoBiological 13094-H08H); also called HIS-IGSF11; IGSF11-HIS; not shown: His tag
# T1 sequence: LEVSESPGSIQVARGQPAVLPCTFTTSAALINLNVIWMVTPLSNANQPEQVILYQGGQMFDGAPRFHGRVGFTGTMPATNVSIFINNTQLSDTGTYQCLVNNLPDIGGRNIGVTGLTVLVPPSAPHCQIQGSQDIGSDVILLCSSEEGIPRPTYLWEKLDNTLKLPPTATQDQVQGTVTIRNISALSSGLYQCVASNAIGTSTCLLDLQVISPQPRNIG
# method_summary: IgG1 ELISA EC50 <0.02 nM
pEC50: −log10 of the molar value.
result_type: pEC50

{"binder": "A-004 (IgG1 format) (antibody, V domains shown, human IgG1 format) VH: EVQLVESGGGLVKPGGSLRLSCAASGFTFSSYSMNWVRQAPGKGLEWVSSISSSSSYIYYADSVKGRFTISRDNAKNSLYLQMNSLRAEDTAVYYCARGQLLWFGESALIDAFDIWGQGTMVTVSS VL: EIVLTQSPSSLSASVGDRVTITCRASQSISSYLNWYQLKPGKAPKLLIYAASILQSGVPSRFSGSGSGTDFTLTISSLQPEDFAAYYCQQSYSTPRTFGQGTKLEIK", "result_type": "pEC50", "assay_value": "> 10.70"}
{"binder": "A-013 (IgG1 format) (antibody, V domains shown, human IgG1 format) VH: EVQLVESGGGLIQPGGSLRLSCAASGFTVSSNYMSWVRQAPGKGLEWVSVIYSGGSTYYADSVKGRFTISRDNSKNTLYLQMNSLRAEDTAVYYCARGNPYYYGDLQVNFDYWGQGTLVTVSS VL: QAVVTQEPSLTVSPGGTVTLTCASSTGAVTSAYYPNWFQQKPGQAPRALIYSTSNKHSWTPARFSGSLLGGKAALTLSGVQPEDEADYYCLLYYGGAWVFGGGTKLTVL", "result_type": "pEC50", "assay_value": "> 10.70"}
{"binder": "A-016 (IgG1 format) (antibody, V domains shown, human IgG1 format) VH: QVQLQESGAEVKKPGASVKVSCKASGYTFTGYYMHWVRQAPGQGLEWMGGIIPIFGTANYAQKFQGRVTITADESTSTAYMELSSLRSEDTAVYYCAGAGMELTRSGAYYYYGMDVWGQGTTVTVSS VL: QSALTQPASVSGSPGQSITISCTGTSSDIGGYTFVSWYQQHPGKAPKVMIHDVNNRPSGISNRFSGSKSGNTASLTISGLQAEDEADYYCSSVTSTNTYVFGTGTKVTVL", "result_type": "pEC50", "assay_value": "> 10.70"}
